molecular target: SARS-CoV-2 nsp16/nsp10 (Severe acute respiratory syndrome coronavirus 2, UniProt P0DTD1); experiment: biochemical; conditions: 100 μM
Class Met: Percent inhibition at 100 μM, nsp16 at least 20%. Class Not met: Percent inhibition at 100 μM, nsp16 below 20%.

Please review the entries below; each comes with its answer.
molecule | system_under_test | assigned_category
CC(C)(C)c1csc(SCC(=O)Nc2cccc3nsnc23)n1 | SARS-CoV-2 nsp16/nsp10 (Severe acute respiratory syndrome coronavirus 2, UniProt P0DTD1) | Met
COc1cccc(C2CC(O)=Nc3c2c(C)nn3-c2ncnc3[nH]cnc23)c1 (centres unmarked) | SARS-CoV-2 nsp16/nsp10 (Severe acute respiratory syndrome coronavirus 2, UniProt P0DTD1) | Not met

IN: Could you tell me if the measured Percent inhibition at 100 μM, nsp16 of CC1=C(C(=O)O)N2C(=O)C(NC(=O)C(N)c3ccc(O)cc3)C2SC1 (centres unmarked) reaches 20% or more?
OUT: Not met

IN: Could you tell me if the measured Percent inhibition at 100 μM, nsp16 of COc1ccc(C2=NN(C(=O)CCc3ccc4c(c3)OCO4)C(O)(C(F)(F)F)C2)cc1 (centres unmarked) reaches 20% or more?
OUT: Not met
